# experimental target: unphosphorylated-BTK kinase domain (UP-BTK), GST-tagged human BTK (389-659aa) (Homo sapiens (Human), UniProt Q06187)
# Sequence (Q06187 389-659): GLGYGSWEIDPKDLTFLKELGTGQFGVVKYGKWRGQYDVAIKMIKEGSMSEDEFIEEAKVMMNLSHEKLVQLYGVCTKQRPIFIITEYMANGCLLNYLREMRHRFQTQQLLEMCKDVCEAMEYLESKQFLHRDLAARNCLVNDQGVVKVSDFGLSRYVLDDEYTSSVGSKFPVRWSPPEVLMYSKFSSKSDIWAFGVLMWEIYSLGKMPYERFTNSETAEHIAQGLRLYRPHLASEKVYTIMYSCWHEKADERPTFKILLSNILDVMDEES
# test summary: BTK kinase Lanthascreen binding assay
# run parameters: pIC50 = negative log of the IC50 in molar; 60 minutes incubation, 50 nM Tracer 236
experimental endpoint: BTK_I_binding pIC50
One number for each entry.

Q) State the recorded BTK_I_binding pIC50 for this entry: CNCC(=O)N1CCC[C@@H](NC(=O)c2sc3nccc4c3c2NC(=O)N4c2ccc(Oc3ccccc3)cc2C)C1 [Example 91]
A) 7.3

Please supply BTK_I_binding pIC50 for each of the following items, keeping them in order.
1. CCC(=O)N1CCC[C@@H](NC(=O)c2sc3nccc4c3c2NC(=O)N4c2ccc(Oc3ccccc3)cc2C)C1 (single isomer, unassigned) [Example 184]
2. CO[C@@H]1CN(C)C[C@@H]1NC(=O)c1sc2nccc3c2c1NC(=O)N3c1ccc(Oc2ccccc2)cc1C [Example 208]
3. Cc1cc(Oc2ccccc2)ccc1N1C(=O)Nc2c(C(=O)N[C@@H]3CCCN(C(=O)[C@@H]4CCN(C)C4)C3)sc3nccc1c23 [Example 145]
4. CCN1CC(NC(=O)c2sc3nccc4c3c2NC(=O)N4c2ccc(Oc3ccccc3)cc2C)C1 [Example 251]
5. Cc1cc(Oc2ccccc2)ccc1N1C(=O)Nc2c(C(=O)NC3CN(C4CC4)C3)sc3nccc1c23 [Example 230]
6. Cc1cc(Oc2ccccc2)ccc1N1C(=O)Nc2c(C(=O)N[C@H]3CNC[C@@H](F)C3)sc3nccc1c23 [Example 167]

A)
[7.4, 6.8, 7.0, 6.4, 6.4, 7.0]

---

What BTK_I_binding pIC50 was measured for each of the following?
# experimental target: unphosphorylated-BTK kinase domain (UP-BTK), GST-tagged human BTK (389-659aa) (Homo sapiens (Human))
# test summary: BTK kinase Lanthascreen binding assay
# run parameters: pIC50 = negative log of the IC50 in molar; 60 minutes incubation, 50 nM Tracer 236
Give bare numbers.

Q) State the recorded BTK_I_binding pIC50 for this entry: Cc1cc(Oc2ccccc2)ccc1N1C(=O)Nc2c(C(=O)N[C@@H]3CCCN(C(=O)/C(F)=C/C4CC4)C3)sc3nccc1c23 [Example 228]
A) 6.6

Q) State the recorded BTK_I_binding pIC50 for this entry: Cc1cc(Oc2ccccc2)ccc1N1C(=O)Nc2c(C(=O)N[C@@H]3CCCN(C(=O)CCO)C3)sc3nccc1c23 (single isomer, unassigned) [Example 99]
A) 7.6

Q) State the recorded BTK_I_binding pIC50 for this entry: C=CC(=O)N1CCC[C@@H](NC(=O)c2sc3nccc4c3c2NC(=O)N4c2c(F)cc(Oc3ccccc3)cc2F)C1 [Example 69]
A) 7.7

Q) State the recorded BTK_I_binding pIC50 for this entry: C=CC(=O)N1CC[C@@H](NC(=O)c2sc3nccc4c3c2NC(=O)N4c2ccc(OC(C)C)cc2C)C1 [Example 126]
A) 6.7

Q) State the recorded BTK_I_binding pIC50 for this entry: Cc1cc(OC2CCCCC2)ccc1N1C(=O)Nc2c(C(=O)N[C@@H]3CCCN(C)C3)sc3nccc1c23 [Example 250]
A) 6.4

Please supply BTK_I_binding pIC50 for each of the following items, keeping them in order.
1. CCO/C=C/C(=O)N1CCC[C@@H](NC(=O)c2sc3nccc4c3c2NC(=O)N4c2ccc(Oc3ccccc3)cc2C)C1 (mixture of isomers) [Example 221]
2. Cc1cc(Oc2ccccc2)ccc1N1C(=O)Nc2c(C(=O)NC3CCC(=O)N(C)C3)sc3nccc1c23 (stereo not shown) [Example 162]

A)
[6.9, 6.8]
